System: Huh7 (hepatocellular carcinoma) cell line
assayComment: CellTiter-Glo luminescent cell viability assay, Huh7
Type: cell-based, human
statedConditions: Homo sapiens, Huh-7; Huh7, compound at 4 μM, 72 h
Experimental: All cell lines were maintained in medium containing 1% penicillin-streptomycin (Dutscher, P06-07100) and 10% Fetal Bovine Serum (Hyclone Dutscher, RZK35922) cultured at 37° C. with 5% CO2. […] Cell viability was measured using the CellTiter-Glo® luminescent cell viability assay as described by the manufacturer (Promega, Ref G7571) using an Infinite F200Pro luminometer (Tecan). […]
Cut-off 90% on viability at 4 µM: below means true, at or above means false.

N#Cc1c(NCc2ccc(Cl)cc2)nc2ccccc2c1N1CCC(NC2CCCC2)C1 (centres unmarked) [Compound 134CN] :: true
Cn1ncnc1Nc1nc2ccccc2c(N2CCC(NC(C)(C)C)CC2)c1C#N [Compound 3270CN] :: true
Cc1cc(Nc2nc3ccccc3c(N3CCC(NC(C)(C)C)CC3)c2C#N)ccc1Nc1nccc(C(F)(F)F)n1 [Compound 534CN] :: true
Cc1ccc(OC2CCCN(c3c(C#N)c(NCc4ccc(Cl)cc4)nc4ccccc34)C2)cc1 (centres unmarked) [Compound 3234CN] :: false
CCN(CC)C1CCN(c2c(C#N)c(NCc3ccc(Cl)cc3)nc3ccccc23)C1 (centres unmarked) [Compound 126CN] :: false

Prompt: Confirm or reject: viability at 4 µM of CC(C)NC1CCN(c2c(C#N)c(NCc3ccc(Cl)cc3)nc3ccccc23)CC1 [Compound 3174CN] lies strictly below 90%
Completion: true

Prompt: Please indicate whether the reported viability at 4 µM of Cc1ccnc(Nc2ccc(Nc3nc4ccccc4c(N4CCC(NC(C)(C)C)CC4)c3C)cc2)n1 [Compound 532Me] is strictly below 90%.
Completion: true

Prompt: Threshold test, viability at 4 µM < 90%: CC(C)(C)OC(=O)NC1CCN(c2c(C#N)c(NCc3ccc(Cl)cc3)nc3ccccc23)CC1 [Compound 182CN]
Completion: true
